Test system: Nilaparvata lugens
Experiment: Insecticidal activity against imidacloprid-sensitive Nilaparvata lugens
Assay type: functional
Under this convention, criterion met denotes LC50 strictly below 6 µg/mL and criterion not met denotes LC50 at or above 6 µg/mL.

CCC1CC(OC)N2CCN(Cc3ccc(Cl)nc3)C2=C1[N+](=O)[O-] (stereo not given): criterion met

Hello, I'm reviewing records and need to know if LC50 of CC1CC(O)N2CCN(Cc3ccc(Cl)nc3)C2=C1[N+](=O)[O-] (stereo not given) is below 6 µg/mL. Could you check?
criterion not met

Hello, I'm reviewing records and need to know if LC50 of O=[N+]([O-])/N=C1\NCCN1Cc1ccc(Cl)nc1 is below 6 µg/mL. Could you check?
criterion met

Hello, I'm reviewing records and need to know if LC50 of CCCOC1CC(C)C([N+](=O)[O-])=C2N(Cc3ccc(Cl)nc3)CCN21 (stereo not given) is below 6 µg/mL. Could you check?
criterion not met

Hello, I'm reviewing records and need to know if LC50 of CC(C)OC1CC(C)C([N+](=O)[O-])=C2N(Cc3ccc(Cl)nc3)CCN21 (stereo not given) is below 6 µg/mL. Could you check?
criterion met
